These data points were gathered from PubChem BioAssay AID1845213.

The following compounds are listed with their measured viability, T/C values.
Test system: NCI-H841 complex tumor spheroid viability
Assay: Anticancer human tumor NCI-H841 cell line growth inhibition;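 further: spheroids exposed to compounds for 7 days before readout; 100% = DMSO vehicle control wells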
Settings: second compound 0.003 µM; first compound 0.3 µM; hits give low values
The answer is to be given in %; state only the numeric part.

# COMPOUND, VALUE UNIT, NUMERIC VALUE
records = [
    ("Cc1sc2c(c1C)C(c1ccc(Cl)cc1)=NC(CC(=O)Nc1ccc(O)cc1)c1nnc(C)n1-2 (stereo not given) + CC[C@@]1(O)C(=O)OCc2c1cc1n(c2=O)Cc2cc3c(CN(C)C)c(O)ccc3nc2-1", "%", 26.5),
]

Query: Sample CNCc1ccc(-c2cc(-c3nc(-c4ccc(S(=O)(=O)C(C)C)cc4)cnc3N)on2)cc1 + CC[C@@]1(O)C(=O)OCc2c1cc1n(c2=O)Cc2cc3c(CN(C)C)c(O)ccc3nc2-1 — what was its viability, T/C?
Result: 5.41

Query: Note, next up: Cn1ncnc1[C@H]1c2n[nH]c(=O)c3cc(F)cc(c23)N[C@@H]1c1ccc(F)cc1 + CC[C@@]1(O)C(=O)OCc2c1cc1n(c2=O)Cc2cc3c(CN(C)C)c(O)ccc3nc2-1
Result: 8.52

Query: Note, next up: Cc1sc2c(c1C)C(c1ccc(Cl)cc1)=NC(CC(=O)Nc1ccc(O)cc1)c1nnc(C)n1-2 (stereo not given) + COc1cc2c(cc1O)CCNC21CSC2c3c(OC(C)=O)c(C)c4c(c3C(COC1=O)N1C(O)C3Cc5cc(C)c(OC)c(O)c5C(C21)N3C)OCO4
Result: 0.1

Query: Note, next up: O=C(c1cc(Cc2n[nH]c(=O)c3ccccc23)ccc1F)N1CCN(C(=O)C2CC2)CC1 + COc1cc2c(cc1O)CCNC21CSC2c3c(OC(C)=O)c(C)c4c(c3C(COC1=O)N1C(O)C3Cc5cc(C)c(OC)c(O)c5C(C21)N3C)OCO4
Result: 0.2
